Cited source for all entries: patent EP4696688A1

- tested.on: human CYP11B2 (Homo sapiens, UniProt P19099)
- Construct: The main elements of an expression plasmid include ORF of human CYP11B1 or human CYP11B2
- Sequence (P19099 25-503): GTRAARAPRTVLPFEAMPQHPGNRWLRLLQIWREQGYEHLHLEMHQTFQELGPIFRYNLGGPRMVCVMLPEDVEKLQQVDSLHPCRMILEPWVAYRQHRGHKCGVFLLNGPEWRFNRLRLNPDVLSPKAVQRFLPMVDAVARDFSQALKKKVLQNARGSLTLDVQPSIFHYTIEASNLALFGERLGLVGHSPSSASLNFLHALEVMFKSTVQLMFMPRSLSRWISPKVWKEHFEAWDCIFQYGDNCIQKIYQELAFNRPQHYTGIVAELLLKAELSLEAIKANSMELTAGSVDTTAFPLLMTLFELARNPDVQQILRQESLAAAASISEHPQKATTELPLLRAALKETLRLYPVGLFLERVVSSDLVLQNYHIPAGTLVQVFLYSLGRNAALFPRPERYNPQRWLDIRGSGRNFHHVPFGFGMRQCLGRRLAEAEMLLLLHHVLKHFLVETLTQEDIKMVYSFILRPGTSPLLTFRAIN
- experiment.description: G-402 cell enzyme experiment, CYP11B2 (aldosterone product, HTRF)
- setup.conditions: G-402 cells stably expressing human CYP11B2, 1 µM 11-deoxycorticosterone, 16 h
value.kind: EC50 (µM)

Cn1cc(C(=O)N2CC3(C2)CN(c2cncc(-c4ccc5c(c4)sc(=O)n5C)n2)C3)cn1 [Example 107]
0.104
COc1ccc2cc(-c3cncc(N4CC5(CN(C(=O)c6ccc(C)nc6)C5)C4)n3)ccc2n1 [Example 100]
0.009
COc1ccc2cc(-c3cncc(NC4CCN(C(=O)c5cnn(C)c5)CC4)c3)ccc2n1 [Example 56]
0.007
COc1ccc2cc(-c3cncc(N4CC5(CN(C(=O)C6(O)CC6)C5)C4)c3)ccc2n1 [Example 97]
0.011
COc1ccc2cc(-c3cncc(N4CC5(CN(C(=O)C6(F)CC6)C5)C4)c3)ccc2n1 [Example 94]
0.013

(1) COc1ccc2cc(-c3cncc(N4CC5(CN(C(=O)C6(C#N)CC6)C5)C4)c3)ccc2n1 [Example 81]
(2) CN(c1cncc(-c2ccc3c(c2)sc(=O)n3C)c1)C1CN(C(=O)c2cnn(C)c2)C1 [Example 89]
Hey, which is lower on measured EC50, 1 or 2 ? Identify your pick by its label.
1
